# Tested On: T1, full-length recombinant human PAD4 (human, UniProt Q9UM07 1-663)
# T1 construct: Full-length recombinant; also called peptidylarginine deiminase 4
# T1 sequence (Q9UM07 whole entry): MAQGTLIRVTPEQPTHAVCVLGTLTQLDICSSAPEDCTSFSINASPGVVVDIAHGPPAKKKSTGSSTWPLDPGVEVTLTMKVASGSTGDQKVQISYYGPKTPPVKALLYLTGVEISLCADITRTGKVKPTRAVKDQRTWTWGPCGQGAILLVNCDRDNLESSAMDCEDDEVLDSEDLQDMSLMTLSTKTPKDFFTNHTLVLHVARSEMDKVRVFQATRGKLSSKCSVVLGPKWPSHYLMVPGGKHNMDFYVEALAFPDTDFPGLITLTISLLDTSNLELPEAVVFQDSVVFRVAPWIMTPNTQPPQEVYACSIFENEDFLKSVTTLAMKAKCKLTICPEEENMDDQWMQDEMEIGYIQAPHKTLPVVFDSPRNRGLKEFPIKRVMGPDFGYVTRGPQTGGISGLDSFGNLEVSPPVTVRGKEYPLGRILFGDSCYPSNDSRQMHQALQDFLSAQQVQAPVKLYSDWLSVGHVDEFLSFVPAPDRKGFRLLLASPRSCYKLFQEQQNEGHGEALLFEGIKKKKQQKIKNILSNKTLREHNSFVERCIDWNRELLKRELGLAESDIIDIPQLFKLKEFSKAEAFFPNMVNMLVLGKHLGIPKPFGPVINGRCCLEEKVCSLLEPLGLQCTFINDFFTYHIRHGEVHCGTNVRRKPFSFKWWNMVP
# Assay Details: ELISA, immobilized human PAD4
Measured O.D. 490/630 at 0.0078125 µg/mL, listed per entry for reference.
Please give the numeric answer without any surrounding text.

Return O.D. 490/630 at 0.0078125 µg/mL (reported value) for this binder: humanized anti-PAD4 antibody derived from H7, VH H4.32 / VL L4.17 (antibody, IgG1, V domains shown, IgG1 kappa; also called H7 H4.32/L4.17) VH: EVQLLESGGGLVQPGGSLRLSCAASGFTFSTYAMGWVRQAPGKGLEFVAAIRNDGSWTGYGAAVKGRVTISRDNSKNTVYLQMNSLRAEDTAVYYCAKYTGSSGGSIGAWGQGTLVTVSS VL: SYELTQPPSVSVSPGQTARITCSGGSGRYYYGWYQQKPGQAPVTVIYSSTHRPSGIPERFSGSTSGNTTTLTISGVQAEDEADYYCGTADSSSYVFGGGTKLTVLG 1.28

***
Return O.D. 490/630 at 0.0078125 µg/mL (reported value) for this binder: humanized anti-PAD4 antibody derived from G8, VH H4.15 / VL L4.17 (antibody, human IgG1, kappa, V domains shown, IgG1 kappa; also called G8 H4.15/L4.17) VH: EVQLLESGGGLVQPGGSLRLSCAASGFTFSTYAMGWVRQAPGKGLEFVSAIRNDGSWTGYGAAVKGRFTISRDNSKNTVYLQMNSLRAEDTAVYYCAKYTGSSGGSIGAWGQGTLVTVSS VL: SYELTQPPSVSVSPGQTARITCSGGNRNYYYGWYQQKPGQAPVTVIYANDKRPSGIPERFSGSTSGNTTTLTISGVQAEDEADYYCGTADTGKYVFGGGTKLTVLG 1.24

Return O.D. 490/630 at 0.0078125 µg/mL (reported value) for this binder: humanized anti-PAD4 antibody derived from H7, VH H4.32 / VL L4.06 (antibody, IgG1, V domains shown, IgG1 kappa; also called H7 H4.32/L4.06) VH: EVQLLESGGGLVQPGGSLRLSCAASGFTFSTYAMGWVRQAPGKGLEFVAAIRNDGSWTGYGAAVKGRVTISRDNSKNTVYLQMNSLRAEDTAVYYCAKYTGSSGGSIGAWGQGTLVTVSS VL: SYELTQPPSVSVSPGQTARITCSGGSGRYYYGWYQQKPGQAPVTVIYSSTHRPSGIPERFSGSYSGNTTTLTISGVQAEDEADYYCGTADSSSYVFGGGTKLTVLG 1.22

Return O.D. 490/630 at 0.0078125 µg/mL (reported value) for this binder: humanized anti-PAD4 antibody derived from G8, VH H4.32 / VL L4.17 (antibody, IgG1, V domains shown, IgG1 kappa; also called G8 H4.32/L4.17) VH: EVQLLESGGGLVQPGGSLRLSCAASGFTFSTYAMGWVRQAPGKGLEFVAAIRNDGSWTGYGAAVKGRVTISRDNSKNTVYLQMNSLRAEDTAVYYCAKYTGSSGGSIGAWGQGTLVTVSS VL: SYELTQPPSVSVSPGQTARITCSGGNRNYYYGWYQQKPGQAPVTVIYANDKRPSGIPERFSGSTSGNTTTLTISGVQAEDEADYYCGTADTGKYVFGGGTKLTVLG 1.2

Return O.D. 490/630 at 0.0078125 µg/mL (reported value) for this binder: humanized anti-PAD4 antibody derived from H7, VH H4.32 / VL L4.15 (antibody, IgG1, V domains shown, IgG1 kappa; also called H7 H4.32/L4.15) VH: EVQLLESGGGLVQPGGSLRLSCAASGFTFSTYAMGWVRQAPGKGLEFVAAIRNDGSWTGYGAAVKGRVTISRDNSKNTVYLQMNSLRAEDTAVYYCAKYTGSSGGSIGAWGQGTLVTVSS VL: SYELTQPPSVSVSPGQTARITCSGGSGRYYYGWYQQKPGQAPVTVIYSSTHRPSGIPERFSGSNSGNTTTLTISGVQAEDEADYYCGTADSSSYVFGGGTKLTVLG 1.34

Return O.D. 490/630 at 0.0078125 µg/mL (reported value) for this binder: humanized anti-PAD4 antibody derived from G8, VH H4.32 / VL L4.06 (antibody, IgG1, V domains shown, IgG1 kappa; also called G8 H4.32/L4.06) VH: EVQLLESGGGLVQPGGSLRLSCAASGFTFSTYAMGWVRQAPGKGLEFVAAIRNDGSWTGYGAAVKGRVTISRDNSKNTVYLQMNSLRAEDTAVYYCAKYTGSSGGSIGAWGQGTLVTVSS VL: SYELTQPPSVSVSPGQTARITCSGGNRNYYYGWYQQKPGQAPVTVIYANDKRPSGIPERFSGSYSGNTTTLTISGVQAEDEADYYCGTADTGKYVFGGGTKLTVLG 1.21

Return O.D. 490/630 at 0.0078125 µg/mL (reported value) for this binder: humanized anti-PAD4 antibody derived from G8, VH H4.32 / VL L4.29 (antibody, IgG1, V domains shown, IgG1 kappa; also called G8 H4.32/L4.29) VH: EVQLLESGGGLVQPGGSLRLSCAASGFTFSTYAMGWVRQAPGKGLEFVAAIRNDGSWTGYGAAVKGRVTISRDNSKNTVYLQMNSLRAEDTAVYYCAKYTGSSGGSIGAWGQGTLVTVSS VL: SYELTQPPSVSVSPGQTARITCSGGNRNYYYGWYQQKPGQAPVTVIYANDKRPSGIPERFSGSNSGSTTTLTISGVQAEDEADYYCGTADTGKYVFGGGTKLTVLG 1.26

Return O.D. 490/630 at 0.0078125 µg/mL (reported value) for this binder: humanized anti-PAD4 antibody derived from H7, VH H4.15 / VL L4.15 (antibody, IgG1, V domains shown, IgG1 kappa; also called H7 H4.15/L4.15) VH: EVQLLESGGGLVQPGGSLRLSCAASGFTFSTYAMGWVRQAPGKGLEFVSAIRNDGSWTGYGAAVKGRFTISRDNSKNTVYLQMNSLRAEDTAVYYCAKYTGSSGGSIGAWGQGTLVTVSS VL: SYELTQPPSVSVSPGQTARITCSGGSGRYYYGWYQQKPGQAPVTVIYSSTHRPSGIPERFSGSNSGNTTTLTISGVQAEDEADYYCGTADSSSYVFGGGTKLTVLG 1.25

Return O.D. 490/630 at 0.0078125 µg/mL (reported value) for this binder: humanized anti-PAD4 antibody derived from G8, VH H4.15 / VL L4.00 (antibody, human IgG1, kappa, V domains shown, IgG1 kappa; also called G8 H4.15/L4.00) VH: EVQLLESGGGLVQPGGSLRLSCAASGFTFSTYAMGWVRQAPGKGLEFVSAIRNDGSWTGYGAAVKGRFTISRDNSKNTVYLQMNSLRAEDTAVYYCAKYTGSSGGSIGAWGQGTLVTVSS VL: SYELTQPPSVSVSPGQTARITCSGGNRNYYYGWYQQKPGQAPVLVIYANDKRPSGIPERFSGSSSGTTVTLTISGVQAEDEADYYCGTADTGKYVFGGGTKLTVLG 0.707

All values here come from patent US20180044434A1.
